Test settings: 298.15 K; 101 kPa; Liquid; Frequency=2 MHz; Linear variable-path acoustic interferometer
± gives the expanded uncertainty stated by the source.

>  <Molecule>
CCCCCC(C)O (centres undefined)

>  <speed of sound>
1314 ± 3 m/s

$$$$
>  <Molecule>
Cc1ccccc1

>  <speed of sound>
1306 ± 3 m/s

$$$$
>  <Molecule>
CCCCCCC(C)O (centres undefined)

>  <speed of sound>
1328 ± 3 m/s

$$$$
>  <Molecule>
CCCCC(C)O (centres undefined)

>  <speed of sound>
1290 ± 3 m/s

$$$$

* * *

Each record here notes measured viscosity.
Test settings: 308.15 K; 101 kPa; Liquid; Capillary tube (Ostwald / Ubbelohde) method

>  <Molecule>
CCCCCCC(C)O (centres undefined)

>  <viscosity [mPa·s]>
4.365

$$$$
>  <Molecule>
CCCCCC(C)O (centres undefined)

>  <viscosity [mPa·s]>
3.683

$$$$
>  <Molecule>
CCCCC(C)O (centres undefined)

>  <viscosity [mPa·s]>
2.92

$$$$
>  <Molecule>
Cc1ccccc1

>  <viscosity [mPa·s]>
0.496

$$$$

* * *

mass density values for the compounds below.
Test settings: 308.15 K; 101 kPa; Liquid; Pycnometric method
Numbers after ± are expanded uncertainties.
Attribute measured: mass density

>  <Compound>
Cc1ccccc1

>  <Attribute measured>
mass density

>  <Result>
852.79 ± 0.74 kg/m3

$$$$
>  <Compound>
CCCCCCC(C)O (centres undefined)

>  <Attribute measured>
mass density

>  <Result>
809.89 ± 0.6 kg/m3

$$$$
>  <Compound>
CCCCCC(C)O (centres undefined)

>  <Attribute measured>
mass density

>  <Result>
804.88 ± 0.7 kg/m3

$$$$
>  <Compound>
CCCCC(C)O (centres undefined)

>  <Attribute measured>
mass density

>  <Result>
801.75 ± 0.71 kg/m3

$$$$

* * *

A collection of compounds and their measured mass density
Test settings: 298.15 K; 101 kPa; Liquid; Pycnometric method
Attribute measured: mass density (kg/m3)

>  <Compound>
CCCCCC(C)O (centres undefined)

>  <Measurement unit>
kg/m3

>  <Result number>
813.74

$$$$
>  <Compound>
Cc1ccccc1

>  <Measurement unit>
kg/m3

>  <Result number>
862.18

$$$$
>  <Compound>
CCCCC(C)O (centres undefined)

>  <Measurement unit>
kg/m3

>  <Result number>
810.84

$$$$
>  <Compound>
CCCCCCC(C)O (centres undefined)

>  <Measurement unit>
kg/m3

>  <Result number>
817.08

$$$$

* * *

Test settings: 298.15 K; 101 kPa; Liquid; Capillary tube (Ostwald / Ubbelohde) method

>  <Compound>
Cc1ccccc1

>  <viscosity [mPa·s]>
0.554

$$$$
>  <Compound>
CCCCCC(C)O (centres undefined)

>  <viscosity [mPa·s]>
5.088

$$$$
>  <Compound>
CCCCCCC(C)O (centres undefined)

>  <viscosity [mPa·s]>
6.429

$$$$
>  <Compound>
CCCCC(C)O (centres undefined)

>  <viscosity [mPa·s]>
4.105

$$$$

* * *

Test settings: 308.15 K; 101 kPa; Liquid; Frequency=2 MHz; Linear variable-path acoustic interferometer
Entries annotated with measured speed of sound

>  <Compound>
Cc1ccccc1

>  <speed of sound (m/s)>
1270

$$$$
>  <Compound>
CCCCCC(C)O (centres undefined)

>  <speed of sound (m/s)>
1274

$$$$
>  <Compound>
CCCCCCC(C)O (centres undefined)

>  <speed of sound (m/s)>
1292

$$$$
>  <Compound>
CCCCC(C)O (centres undefined)

>  <speed of sound (m/s)>
1255

$$$$
